src = ChEMBL document CHEMBL1201862

Hi there, I'd appreciate the recorded GI50 for every entry that follows.
test system: U-251; assay: NCI tumour cell line growth inhibition, 48 h
Active and inactive are the calls of the source. Rule as the data show it: active = GI50 up to about 1.1 µM and inactive = higher.

Recorded GI50, per entry:
CC(=O)NC(Cc1ccc(OP(=O)(OCc2ccc([N+](=O)[O-])o2)N(C)CCCCCl)cc1)C(=O)NC(C)c1ccc(OCC2CCCCC2)c(C(N)=O)c1 (stereo not given) :: 2.48 µM (inactive)
CC1=CC2=C(C)C3(CC3)[C@@](C)(O)C(=O)C2=C1 :: 0.209 µM (active)
COc1ccc(CC(C#N)c2cc(OC)c(OC)c(OC)c2)cc1 (stereo not given) :: 0.0568 µM (active)
CC[C@@H]1OC2(C)CC(S(=O)(=O)c3ccccc3)CC1O2 (stereo not given in full) :: > 100 µM (inactive)
O=C(NN=C1CCN(Cc2ccccc2)CC1)C(O)(c1ccccc1)c1ccccc1 :: > 100 µM (inactive)

Lab note: each compound below needs its GI50 filled in.
1. Oc1nnc2c(-c3ccccc3)n[nH]c2n1
2. COc1cc(/C=C(\C)c2ccc3c(c2)OCO3)cc(OC)c1OC
3. CC(=O)OCC1OC(n2cc(F)c(=O)[nH]c2=O)C(OC(C)=O)C1OC(C)=O (stereo not given)
4. O=c1[nH]c(NCc2cccnc2)nc2[nH]cnc12
5. C=C1C[C@H](O)[C@H]2C(C[Se]c3ccccc3)C(=O)O[C@@H]2[C@H]2[C@H](C)C(O)C[C@@H]12 (stereo not given in full)

1. > 100 µM (inactive)
2. 50.4 µM (inactive)
3. 13.4 µM (inactive)
4. > 100 µM (inactive)
5. 16.4 µM (inactive)

====

tested on: NCI-H23; assay: NCI tumour cell line growth inhibition, 48 h
Activity calls are given as the source filed them. Cut-off read from the data, not from the text of the source: active = GI50 up to about 1.1 µM and inactive = higher.
value-type: GI50

Solved entries (count: 6):
CCOC(=O)C(C(=O)OCC)P(=S)(S)c1ccccc1 (centres undefined) :: > 100 µM (inactive)
CCC(CCCCC1CC[C@H]2CC(=O)C[C@@H]12)OC (some centres undefined) :: > 100 µM (inactive)
COc1cc2c(cc1O)C1Cc3ccc(OC)c(O)c3C(C2)N1C (centres undefined) :: > 100 µM (inactive)
O=C(OCc1ccccc1)c1ccccc1-c1c2ccc(=O)cc-2oc2cc(OCc3ccccc3)ccc12 :: 10.4 µM (inactive)
COc1ccc2cc(C(=O)NCCCNC(=O)c3ccc4c(OC)c(OC)ccc4c3)ccc2c1OC :: > 100 µM (inactive)
CCOc1ccccc1-c1nc2c(s1)C(=O)c1ccccc1C2=O :: 10.5 µM (inactive)

Report GI50 for every entry below.
1. CC(C)CC(C(N)=O)C(=O)NC(Cc1ccccc1)NC(=O)CNC(=O)C(C)NC(=O)C(N)Cc1ccc(O)cc1 (centres undefined)
2. CC1(C(=O)Nc2ccc3ccccc3c2)CC2(C)CC(C)(C1)C(O)NC2=O (centres undefined)
3. CC(=O)NC(Cc1ccc(OP(=O)(OCc2ccc([N+](=O)[O-])o2)N(C)CCCCCl)cc1)C(=O)NC(C)c1ccc(OCC2CCCCC2)c(C(N)=O)c1 (centres undefined)

["> 100 µM (inactive)", "> 100 µM (inactive)", "2.21 µM (inactive)"]

====

So I've got a bunch of compounds here, and I need their GI50 values.
test system: SF-295; test: NCI tumour cell line growth inhibition, 48 h
Active and inactive are the calls of the source. Cut-off read from the data, not from the text of the source: active = GI50 up to about 1.1 µM and inactive = higher.

Example entries begin here.
CC1CC[C@@]2(OC1)OC1C[C@H]3[C@@H]4CC[C@H]5CC(OC6OC(CO)C(OC7OC(CO)C(O)C(O)C7O)C(O)C6O)CCC5(C)[C@H]4CCC3(C)C1[C@@H]2C (stereo not given in full) :: 8.55 µM (inactive)
Cc1cccc2nc3n(c12)C(=O)c1ccccc1-3 :: 49.9 µM (inactive)
CCN(CC)CCNc1n[n+]([O-])c2ccccc2[n+]1[O-] :: 4.78 µM (inactive)
COC(=O)[C@@]1(Cc2ccc(O)cc2)C[C@@H]2Cc3ccccc3N2N1 :: 49.1 µM (inactive)

Form field - read-out: GI50; system: SF-295; submitted item: COc1ccc(Nc2nc(C#N)c(N)s2)cc1
29.2 µM (inactive)
